Measured pIC50 accompanies every entry in the list below.
# Target or test system: human Gastric Inhibitory Peptide Receptor (human) (UniProt P48546)
# Sequence (P48546 22-466 limits assumed): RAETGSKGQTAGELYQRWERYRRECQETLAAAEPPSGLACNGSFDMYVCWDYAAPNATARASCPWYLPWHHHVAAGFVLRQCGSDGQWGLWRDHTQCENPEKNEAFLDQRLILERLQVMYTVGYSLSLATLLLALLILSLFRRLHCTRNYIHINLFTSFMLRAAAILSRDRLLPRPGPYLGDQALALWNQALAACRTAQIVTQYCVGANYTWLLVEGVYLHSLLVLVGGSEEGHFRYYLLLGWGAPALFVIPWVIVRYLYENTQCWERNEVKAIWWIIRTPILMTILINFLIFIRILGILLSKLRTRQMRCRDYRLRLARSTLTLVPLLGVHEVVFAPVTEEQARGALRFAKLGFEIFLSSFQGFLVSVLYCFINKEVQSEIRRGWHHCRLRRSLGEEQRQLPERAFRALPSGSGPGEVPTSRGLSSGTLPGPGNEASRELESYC
# Method description: FACS competition with GIP-057 on CHO-K1-hGIPR cells; pIC50 category A: >8.0
*1 amine or outer side, *2 acyl side, *3 side chain or, on linkers, in order; H or OH if unused. Bridges are numbered along the chain shown (N, C = ends). Side-chain parts run from the residue outwards. [ ]: non-standard residue; d: D form. The star is where a group is joined. Ttds = 1,13-diamino-4,7,10-trioxatridecan-succinamic acid, NCCCOCCOCCOCCCNC(=O)CCC(=O)*; NH(1-deoxy-D-glucityl) = OC[C@@H](O)[C@@H](O)[C@H](O)[C@@H](O)CN*; dE(AGLU) = D-glutamic acid bearing 1-amino-1-deoxy-D-glucitol; Pro(trans-4-NH2) = O=C([C@@H]1C[C@@H](N[*:3])CN1[*:1])[*:2]; DOTA = O=C(O)CN1CCN(CC(=O)O)CCN(CC(=O)*)CCN(CC(=O)O)CC1; Trp(5-Cl) = N[C@@H](Cc1c[nH]c2ccc(Cl)cc12)C(=O)O; Pyridine(2,6-diCH2) = c1cc(C[*:1])nc(C[*:2])c1; APAc = 4-amino-1-carboxymethylpiperidine; Glutaryl = O=C(CCCC(=O)[*:2])[*:1]; Cysteamide = C(CS[*:3])N[*:1]; 3Lut = 3,5-lutidylidene; Api = NC1(C(=O)O)CCNCC1; Aib = CC(C)(N)C(=O)O

In: # pIC50 lookup, item {DOTA-Ttds}-DW[Trp(5-Cl)]PE[dL]C[Aib]LI[Cysteamide] (linker (positions not given here) via 3Lut; not fully specified (bridges); printed as DOTA-Ttds-Asp-Trp-5Clw-Pro-Glu-leu-[Cys(3Lut)-Aib-Leu-Ile-AET]) [DOTA-Ttds-Asp-Trp-5Clw-Pro-Glu-leu-[Cys(3Lut)-Aib-Leu-Ile-AET]]
Out: > 8 pic50

In: Another binder to check: DWXPEXCXLI (N-term DOTA-Ttds; 5Clw; leu (D-Leu); cycle [Cys(3MeBn)..en]; Aib) [DOTA-Ttds-Asp-Trp-5Clw-Pro-Glu-leu-[Cys(3MeBn)-Aib-Leu-Ile-en]]
Out: > 8 pic50

In: Likewise for {DOTA-dE(AGLU)}-DW[Trp(5-Cl)][Pro(trans-4-NH2)]E[dL]C[Api]([Glutaryl-NH(1-deoxy-D-glucityl)])LIC-{APAc-dE(AGLU)-NH2} (linker 7-11 via Pyridine(2,6-diCH2)) [DOTA-glu(AGLU)-Asp-Trp-5Clw-Tap-Glu-leu-[Cys(2Lut)-Apc(AGLU-Glutar)-Leu-Ile-Cys]-APAc-glu(AGLU)-NH2] ?
Out: > 8 pic50
